The measurements presented in this section are drawn from patent US20220177587A1.

Target: human PD-L1 (human) (UniProt Q9NZQ7)
Sequence (Q9NZQ7 19-290): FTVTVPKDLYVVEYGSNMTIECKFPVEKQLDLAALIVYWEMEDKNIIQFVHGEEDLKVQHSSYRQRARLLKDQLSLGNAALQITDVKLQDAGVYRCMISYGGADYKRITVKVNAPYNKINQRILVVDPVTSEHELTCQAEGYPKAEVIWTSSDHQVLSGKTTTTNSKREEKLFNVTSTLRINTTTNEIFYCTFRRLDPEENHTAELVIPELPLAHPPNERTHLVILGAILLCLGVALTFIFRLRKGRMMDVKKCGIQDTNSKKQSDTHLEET
Test: flow cytometry, CHO cells expressing PD-L1
Experimental Readout: MFI at 33.3 nM (MFI)

A = CD80 T13R/Q33R/E35D/M38I/M47L/V68M/E95V/L97Q IgV-Fc (Fc fusion) VIHVTKEVKEVARLSCGHNVSVEELAQTRIYWRKDKKIVLTMMSGDLNIWPEYKNRTIFDITNNLSIMILALRPSDEGTYECVVLKYEKDAFKRVHQAEVTLSVKAD
B = CD80 E35D/M47V/N48K/V68M/L85M IgV-Fc (Fc fusion) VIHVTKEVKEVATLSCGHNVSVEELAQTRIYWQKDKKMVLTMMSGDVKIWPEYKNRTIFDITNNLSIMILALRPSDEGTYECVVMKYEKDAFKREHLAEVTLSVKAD
// query # returns the entry with the larger MFI at 33.3 nM; inputs A and B Select an item and report its label.
// result A
